Test system: HeLa
TEST DETAILS: Cytotoxicity against human HeLa cells assessed as reduction in cell viability incubated for 24 hrs by CCK-8 assay
Assay type: functional, cell-based
# pIC50 annotations
Entry type: numeric. Quantity: pIC50, the -log10 of concentration in molar units.

# MOLECULE, pIC50
records = [
    ("CC[C@H](C)[C@]1(OC)NC(=O)[C@@H](Cc2ccccc2)N2C(=O)C3=C(NC21)OC=CC=C3 (some centres not stated)", 3.72),
]

Then there is this molecule:
Using the record for CC[C@H](C)[C@]1(O)NC(=O)[C@@H](Cc2ccccc2)N2C(=O)C3=C(NC21)OC=CC=C3 (some centres not stated) , state its measured pIC50.
3.94
